Origin of the recorded values: PubChem BioAssay (NCI)

# Tested on: SK-MEL-2 melanoma
# Experiment notes: NCI-60 one-dose screen, 48 h
# Condition: 10 µM unless noted
Compounds without any hit were thinned out: in the full panel of roughly 83,000, 20% have a hit. Active and inactive are the calls of the source. The calls were made as follows: active = growth percent below 10; inactive = the rest.
One label from this list, please: t = active, f = inactive

Known results for compounds:
[in] Could you kindly confirm the outcome this assay logged for `CC(C)CSc1nc(NCCc2c[nH]c3ccccc23)c(C#N)c(-c2ccc(Cl)cc2)n1` ?
[out] f

[in] What call does the record list for C=C1CCC2C3(C)COC(c4cc(F)cc(F)c4)OC3CCC2(C)C1CC(O)C1=CCOC1=O (stereo not given) ?
[out] f

[in] Record request — test call for `COc1cccc(/C=C/C(=O)c2ccc(OC)c(S(N)(=O)=O)c2)c1`
[out] f

[in] Lab log entry: `S=C(Nc1ccc(OCc2nc3ccccc3[nH]2)cc1)NC1CCCCC1` — outcome as called in the assay?
[out] f

[in] Identify the outcome logged in this assay for the compound shown: `Cc1cccc(-c2nc(Nc3cccc(S(N)(=O)=O)c3)c3ccccc3n2)c1`
[out] f

More entries:
[in] Record request — test call for `Cc1c(C(=O)NNC(=O)c2ccc(Cl)cc2)nnn1-c1ccc(Cl)cc1`
[out] f

[in] I'd appreciate the recorded outcome for `COc1ccc(/C=C2\C(=O)Nc3ccc(Cl)cc32)cc1OCc1ccccn1` from this test.
[out] f

[in] Could you please tell me the result logged for `COc1cc(-c2cc(-c3cccc(OCC(=O)O)c3)[nH]c(=O)c2C#N)cc(OC)c1OC` in this assay?
[out] f

[in] GET /call?item= COc1cc2c(c(OC)c1OC)C(=O)CC(c1cccc(NC(=O)[C@@H](N)CC(C)C)c1)O2 (stereo not given in full) returns the recorded outcome of this test.
[out] f

[in] Hi team, can someone confirm the assay call for `C#CCOc1ccc(/C=N/Nc2nc(-c3ccc(F)cc3)cs2)cc1OC` ?
[out] f

* * *

# Tested on: SK-MEL-28 melanoma
# Experiment notes: NCI-60 one-dose screen, 48 h (100 = growth as untreated, 0 = no growth, -100 = all killed)
# Condition: 10 µM unless noted
This is part of a sample that, as a whole, favours compounds with a hit. Of some 83,000 tested, about 20% had one in any assay.
Reported metric: growth (%)
Numeric answer only, unit % assumed.

Per the records, this compound ( C=C1CCC2C3(C)COC(c4ccccc4)OC3CCC2(C)C1CC(NCc1ccccc1)C1=CCOC1=O (centres undefined) ) has growth equal to 94.2

// sample Cc1cccc(NC(=O)[C@]23CCC(C)(C)CC2C2=CCC4[C@@]5(C)C[C@@H](O)[C@H](O)[C@@](C)(CO)C5CC[C@@]4(C)[C@]2(C)CC3)c1 (some centres undefined) , its growth was 32.5

Just so you know, measured growth for `COc1ccc(NC(=O)c2sc3nc(C(C)C)ccc3c2N)cc1` came out at 94

Entry CC(C)(C)OC(=O)/C=C/c1cccc2c1C(=O)NC(C)(c1cc3cc(Cl)ccc3oc1=O)N2 (centres undefined) , growth reported as 53.7

The reported growth of the compound `COc1ccc2[nH]cc(-c3nnc(N)nc3-c3c[nH]c4ncc(Br)cc34)c2c1` was 98.9

growth recorded for this compound, `C#C[C@]1(O)CC[C@H]2[C@@H]3CC=C4c5sc(-c6ccc(O)c(O)c6)nc5CC[C@]4(C)[C@H]3CC[C@@]21C` , is -80.3

Sample `Cc1cc(C)n(-c2ccc3nnc(-c4ccccc4)n3n2)n1` ; growth observed: 122

Value of growth reported for the compound `COc1ccc(C(=O)/C=C/c2ccc(Cl)c(Cl)c2)cc1S(N)(=O)=O` is -33.7

Please turn your attention to the following entry.
Per the records, this compound ( `O=C(O)Cn1c(O)c(/C=C2/C=c3cc4c(cc3=NC2=O)OCCO4)sc1=S` ) has growth equal to 116
